ASSAY_PROTOCOL: in vivo
EXPERIMENTAL_PARAMETERS: Balb/c nu/nu, mouse, iv, 40 pmol, total radioactivity, Small intestine uptake
PROPERTY_MEASURED: tissue uptake at 1 h

Task: Consider the compound CC(C)C[C@H](NC(=O)C[C@H](O)[C@H](CC(C)C)NC(=O)[C@H](Cc1c[nH]cn1)NC(=O)CNC(=O)[C@@H](NC(=O)[C@H](C)NC(=O)[C@H](Cc1c[nH]c2ccccc12)NC(=O)[C@H](CCC(N)=O)NC(=O)[C@@H](Cc1ccccc1)NC(=O)COCCOCCNC(=O)CCC(C(=O)O)N1CCN(CC(=O)O)CCN(CC(=O)O)CCN(CC(=O)O)CC1)C(C)C)C(N)=O (mixture of isomers) [[^111In]In-DOTAGA-PEG2-RM26, metal not drawn] and give its recorded tissue uptake at 1 h.
Output: 0.8 %ID/g

====

ASSAY_PROTOCOL: in vivo
EXPERIMENTAL_PARAMETERS: Balb/c nu/nu, mouse, iv, 40 pmol, total radioactivity, Pancreas uptake
PROPERTY_MEASURED: tissue uptake at 24 h
State the value with its unit after it.

Task: Specify measured tissue uptake at 24 h for CC(C)C[C@H](NC(=O)C[C@H](O)[C@H](CC(C)C)NC(=O)[C@H](Cc1c[nH]cn1)NC(=O)CNC(=O)[C@@H](NC(=O)[C@H](C)NC(=O)[C@H](Cc1c[nH]c2ccccc12)NC(=O)[C@H](CCC(N)=O)NC(=O)[C@@H](Cc1ccccc1)NC(=O)COCCOCCNC(=O)CCC(C(=O)O)N1CCN(CC(=O)O)CCN(CC(=O)O)CCN(CC(=O)O)CC1)C(C)C)C(N)=O (mixture of isomers) [[^111In]In-DOTAGA-PEG2-RM26, metal not drawn] .
Output: 0.03 %ID/g

====

ASSAY_PROTOCOL: Biodistribution in mice bearing PC-3 tumors
EXPERIMENTAL_PARAMETERS: Balb/c nu/nu, mouse, small intestine, iv, 40 pmol, total radioactivity, Small intestine uptake, 4 h pi, n = 4
PROPERTY_MEASURED: tissue uptake at 4 h (%ID/g)
The reply should be a number in %ID/g, with the unit left off.

Task: Provide tissue uptake at 4 h value for the following compound: CC(C)C[C@H](NC(=O)C[C@H](O)[C@H](CC(C)C)NC(=O)[C@H](Cc1c[nH]cn1)NC(=O)CN(C)C(=O)[C@@H](NC(=O)[C@H](C)NC(=O)[C@H](Cc1c[nH]c2ccccc12)NC(=O)[C@H](CCC(N)=O)NC(=O)[C@@H](Cc1ccccc1)NC(=O)COCCOCCNC(=O)CCC(C(=O)O)N1CCN(CC(=O)O)CCN(CC(=O)O)CCN(CC(=O)O)CC1)C(C)C)C(N)=O (mixture of isomers) [[^111In]In-AU-RM26-M1, [^111In]In-DOTAGA-PEG2-(Sar^11)RM26, metal not drawn]
Output: 0.3

====

ASSAY_PROTOCOL: Biodistribution in mice bearing PC-3 tumors
EXPERIMENTAL_PARAMETERS: Balb/c nu/nu, mouse, bone, iv, 40 pmol, total radioactivity, Bone uptake, 24 h pi, n = 4
PROPERTY_MEASURED: tissue uptake at 24 h
Don't forget the unit after the value.

Task: Provide measured tissue uptake at 24 h value, entry: CC(C)C[C@H](NC(=O)C[C@H](O)[C@H](CC(C)C)NC(=O)[C@H](Cc1c[nH]cn1)NC(=O)CN(C)C(=O)[C@@H](NC(=O)[C@H](C)NC(=O)[C@H](Cc1c[nH]c2ccccc12)NC(=O)[C@H](CCC(N)=O)NC(=O)[C@@H](Cc1ccccc1)NC(=O)COCCOCCNC(=O)CCC(C(=O)O)N1CCN(CC(=O)O)CCN(CC(=O)O)CCN(CC(=O)O)CC1)C(C)C)C(N)=O (mixture of isomers) [[^111In]In-AU-RM26-M1, [^111In]In-DOTAGA-PEG2-(Sar^11)RM26, metal not drawn]
Output: 0.06 %ID/g

====

ASSAY_PROTOCOL: Biodistribution in mice bearing PC-3 tumors
EXPERIMENTAL_PARAMETERS: Balb/c nu/nu, mouse, lungs, iv, 40 pmol, total radioactivity, Lungs uptake, 1 h pi, n = 4
PROPERTY_MEASURED: tissue uptake at 1 h (%ID/g)
Dear colleague, please return just the value in %ID/g, with no unit written.

Task: Specify tissue uptake at 1 h for CC(C)C[C@H](NC(=O)C[C@H](O)[C@H](CC(C)C)NC(=O)[C@H](Cc1c[nH]cn1)NC(=O)CN(C)C(=O)[C@@H](NC(=O)[C@H](C)NC(=O)[C@H](Cc1c[nH]c2ccccc12)NC(=O)[C@H](CCC(N)=O)NC(=O)[C@@H](Cc1ccccc1)NC(=O)COCCOCCNC(=O)CCC(C(=O)O)N1CCN(CC(=O)O)CCN(CC(=O)O)CCN(CC(=O)O)CC1)C(C)C)C(N)=O (mixture of isomers) [[^111In]In-AU-RM26-M1, [^111In]In-DOTAGA-PEG2-(Sar^11)RM26, metal not drawn] and stop.
Output: 0.46

====

ASSAY_PROTOCOL: Biodistribution in mice bearing PC-3 tumors
EXPERIMENTAL_PARAMETERS: Balb/c nu/nu, mouse, muscle, iv, 40 pmol, total radioactivity, Muscle uptake, 4 h pi, n = 4
PROPERTY_MEASURED: tissue uptake at 4 h (%ID/g)
All answers are understood in %ID/g, so give the number only.

Task: Identify measured tissue uptake at 4 h associated with CC(C)C[C@H](NC(=O)C[C@H](O)[C@H](CC(C)C)NC(=O)[C@H](Cc1c[nH]cn1)NC(=O)CN(C)C(=O)[C@@H](NC(=O)[C@H](C)NC(=O)[C@H](Cc1c[nH]c2ccccc12)NC(=O)[C@H](CCC(N)=O)NC(=O)[C@@H](Cc1ccccc1)NC(=O)COCCOCCNC(=O)CCC(C(=O)O)N1CCN(CC(=O)O)CCN(CC(=O)O)CCN(CC(=O)O)CC1)C(C)C)C(N)=O (mixture of isomers) [[^111In]In-AU-RM26-M1, [^111In]In-DOTAGA-PEG2-(Sar^11)RM26, metal not drawn]
Output: 0.13

====

ASSAY_PROTOCOL: Biodistribution in mice bearing PC-3 tumors
EXPERIMENTAL_PARAMETERS: Balb/c nu/nu, mouse, kidneys, iv, 40 pmol, total radioactivity, Kidneys uptake, 24 h pi, n = 4
PROPERTY_MEASURED: tissue uptake at 24 h (%ID/g)
Record the value in %ID/g, omitting the unit from your answer.

Task: Assign tissue uptake at 24 h to the following record: CC(C)C[C@H](NC(=O)C[C@H](O)[C@H](CC(C)C)NC(=O)[C@H](Cc1c[nH]cn1)NC(=O)CN(C)C(=O)[C@@H](NC(=O)[C@H](C)NC(=O)[C@H](Cc1c[nH]c2ccccc12)NC(=O)[C@H](CCC(N)=O)NC(=O)[C@@H](Cc1ccccc1)NC(=O)COCCOCCNC(=O)CCC(C(=O)O)N1CCN(CC(=O)O)CCN(CC(=O)O)CCN(CC(=O)O)CC1)C(C)C)C(N)=O (mixture of isomers) [[^111In]In-AU-RM26-M1, [^111In]In-DOTAGA-PEG2-(Sar^11)RM26, metal not drawn]
Output: 3

====

ASSAY_PROTOCOL: in vivo
EXPERIMENTAL_PARAMETERS: Balb/c nu/nu, mouse, iv, 40 pmol, total radioactivity, Spleen uptake
PROPERTY_MEASURED: tissue uptake at 4 h (%ID/g)
Give the number; %ID/g is assumed, so skip it.

Task: Answer with reported tissue uptake at 4 h of CC(C)C[C@H](NC(=O)C[C@H](O)[C@H](CC(C)C)NC(=O)[C@H](Cc1c[nH]cn1)NC(=O)CNC(=O)[C@@H](NC(=O)[C@H](C)NC(=O)[C@H](Cc1c[nH]c2ccccc12)NC(=O)[C@H](CCC(N)=O)NC(=O)[C@@H](Cc1ccccc1)NC(=O)COCCOCCNC(=O)CCC(C(=O)O)N1CCN(CC(=O)O)CCN(CC(=O)O)CCN(CC(=O)O)CC1)C(C)C)C(N)=O (mixture of isomers) [[^111In]In-DOTAGA-PEG2-RM26, metal not drawn]
Output: 0.1

====

ASSAY_PROTOCOL: in vivo
EXPERIMENTAL_PARAMETERS: Balb/c nu/nu, mouse, iv, 40 pmol, total radioactivity, Liver uptake
PROPERTY_MEASURED: tissue uptake at 24 h (%ID/g)
Number only, in %ID/g; omit the unit.

Task: Identify tissue uptake at 24 h associated with the compound CC(C)C[C@H](NC(=O)C[C@H](O)[C@H](CC(C)C)NC(=O)[C@H](Cc1c[nH]cn1)NC(=O)CNC(=O)[C@@H](NC(=O)[C@H](C)NC(=O)[C@H](Cc1c[nH]c2ccccc12)NC(=O)[C@H](CCC(N)=O)NC(=O)[C@@H](Cc1ccccc1)NC(=O)COCCOCCNC(=O)CCC(C(=O)O)N1CCN(CC(=O)O)CCN(CC(=O)O)CCN(CC(=O)O)CC1)C(C)C)C(N)=O (mixture of isomers) [[^111In]In-DOTAGA-PEG2-RM26, metal not drawn]
Output: 0.16
